B1: library; numbered along this chain (parent)
chain: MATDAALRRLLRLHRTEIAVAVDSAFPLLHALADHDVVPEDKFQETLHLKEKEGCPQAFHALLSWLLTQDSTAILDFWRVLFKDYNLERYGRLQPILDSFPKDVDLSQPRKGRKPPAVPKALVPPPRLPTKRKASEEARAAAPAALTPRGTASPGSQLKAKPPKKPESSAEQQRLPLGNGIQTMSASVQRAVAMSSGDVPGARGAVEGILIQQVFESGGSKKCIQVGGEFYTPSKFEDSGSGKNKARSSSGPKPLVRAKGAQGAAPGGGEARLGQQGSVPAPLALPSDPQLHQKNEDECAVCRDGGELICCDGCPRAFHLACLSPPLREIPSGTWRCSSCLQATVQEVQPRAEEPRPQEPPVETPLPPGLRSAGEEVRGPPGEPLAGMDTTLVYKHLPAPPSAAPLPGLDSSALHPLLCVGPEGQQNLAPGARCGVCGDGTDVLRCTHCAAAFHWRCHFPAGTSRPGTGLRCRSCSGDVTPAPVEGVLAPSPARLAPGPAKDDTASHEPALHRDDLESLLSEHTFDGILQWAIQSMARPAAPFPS

variants of: B1; assay: AIRE transcriptional activation functional score (insulin promoter-GFP; nonsense median 0, synonymous median 1) (normalised score); higher = higher AIRE activity (more reporter activation); conditions: with insulin promoter-GFP reporter in HEK293
observation-type: AIRE transcriptional activation functional score
Answers are plain numbers.

E347Y; 1.43
C472M; -0.0949

Please give AIRE transcriptional activation functional score for each item listed below.
1. S491F
2. P116H
3. F459C
4. P367R

RESULT:
1.05
1.15
0.343
1.06
